- Tested on: PC-3 prostate
- PROCEDURE_TEXT: NCI tumour cell line growth inhibition, 48 h; in the data active = GI50 below about 0.43 µM; inactive = the rest
Your reply should match one of these outcome classes. T for active, F for inactive

Illustrative cases are given below, each with its answer.
> print(dat)
                    structure.smiles.string  label.value
1  CC(C)C[C@H](NC(=O)/C=C/Cn1ccc2ccccc2c1=O)B(O)O            F
2  Cc1ncc(CCCN(C)C)cc1Nc1ncc2c(n1)-c1ccc(C(F)(F)F)cc1NC(=S)C2            T
3  CCn1c(SCc2ccc(C)cc2)nnc1-c1nn(-c2ccc(Cl)cc2Cl)c(-c2ccc(Cl)cc2)c1C            F
4  O=C(/C=C\c1ccc(NCc2ccc(C(=O)O)cc2)cc1)CCl            F
5  COc1ccc(CCN2COc3c([C@@H](C)CCC=C(C)C)ccc(C)c3C2)cc1OC            F
6  CCCCON(OC(=O)c1ccc2ccc3cccc4ccc1c2c34)C(C)=O            F

## Input Name the outcome recorded for CC(C)(C[C@H]1CN(S(=O)(=O)c2cccc(C(F)(F)F)c2)c2cc(-c3cc(F)cc(OC(F)F)c3)ccc2O1)C(=O)O in the assay.
## Output F
